Test system: P388 leukemia ip, CD2F1 mice, survival T/C
Assay: NCI In Vivo Anticancer Drug Screen. Data for tumor model P388 Leukemia (intraperitoneal) in CD2F1 (CDF1) mice
Conditions: endpoint: median survival time; dose: 100.0 mg/kg/injection; schedule: Q01DX009 (ip); vehicle: saline with Tween-80
Toxic doses and inconclusive results are not listed. How the source made its calls: active means survival T/C of 150% or more; inactive means T/C below 125% in these data.
Write down the outcome that applies. Available outcomes: active, inactive

Please review the entries below; each comes with its answer.
MOLECULE	LABEL
COC1CC(N)C2OC(c3ccccc3)OCC2O1 (stereo not drawn)	inactive
O=C(O)/C(Br)=C/c1ccccc1	inactive
CCOC(CBr)(OCC)OCC	inactive
C=CC#N	inactive
CC(C)C(N)S(=O)(=O)O (stereo not drawn)	inactive
O=[N+]([O-])c1ccc2c(ccn2C2OCC(O)C(O)C2O)c1 (stereo not drawn)	inactive
COc1cccc(CN2CCCN(/N=C/c3c4c(O)c5c(O)c(C)c6c(c5c3O)C(=O)C(C)(O/C=C/C(OC)C(C)C(OC(C)=O)C(C)C(O)C(C)C(O)C(C)/C=C/C=C(/C)C(=O)N4)O6)CC2)c1 (stereo not drawn)	inactive
C=CC[n+]1ccc(/C=N\NC(N)=S)c2ccccc21	inactive
O=C1CSC(=O)N1c1ccc(F)cc1	inactive
CCCCCCCCCCCCCOC(=O)c1ccc(O)cc1	inactive

Query: How was c1ccc2c(c1)Cc1nc3ccccc3nc1-2 classified in this test?
Response: inactive

Query: How was C[Si](Cl)(CCl)CCl classified in this test?
Response: inactive

Query: How was CC1(C)N=C(N)N=C(N)N1c1ccc(OCCNS(=O)(=O)c2cccc(S(=O)(=O)F)c2)c(Cl)c1 classified in this test?
Response: active

====

Tested on: P388 leukemia ip, CD2F1 mice, survival T/C
Assay: NCI In Vivo Anticancer Drug Screen. Data for tumor model P388 Leukemia (intraperitoneal) in CD2F1 (CDF1) mice
Conditions: endpoint: median survival time; dose: 400.0 mg/kg/injection; schedule: Q04DX003 (ip); vehicle: Klucel (hydroxypropylcellulose) (HPC); higher = longer survival
Toxic doses and inconclusive results are not listed.
# key: entry, value: T/C

MOLECULE	SYSTEM UNDER TEST	ASSAY METRIC	RECORDED VALUE
CC(C)OC(=O)c1ccc(=O)oc1	P388 leukemia ip, CD2F1 mice, survival T/C	T/C	110 % of control
CC1(C)NN=C(SCc2ccccc2)NC1=O	P388 leukemia ip, CD2F1 mice, survival T/C	T/C	92 % of control
COC(=O)C1c2c(C)cc3n2C(C=C(C)C3)C1C(=O)OC (stereo unspecified)	P388 leukemia ip, CD2F1 mice, survival T/C	T/C	95 % of control
O=C(Nc1ccc(Cl)c(Cl)c1)Nc1ccc(Oc2ccc(Cl)cc2Cl)cc1S(=O)(=O)O	P388 leukemia ip, CD2F1 mice, survival T/C	T/C	95 % of control
COc1cc2c(c(OC)c1OC)C1=NNC(=O)C1(C)CC2 (stereo unspecified)	P388 leukemia ip, CD2F1 mice, survival T/C	T/C	92 % of control

Lab book: T/C of COc1ccc([N+](=O)[O-])cc1NOC(C)=O noted as 94 % of control

====

Test system: P388 leukemia ip, CD2F1 mice, survival T/C
Assay: NCI In Vivo Anticancer Drug Screen. Data for tumor model P388 Leukemia (intraperitoneal) in CD2F1 (CDF1) mice
Conditions: endpoint: median survival time; dose: 100.0 mg/kg/injection; schedule: Q01DX001 (ip); vehicle: saline with Tween-80; higher = longer survival
Inconclusive results and toxic doses are left out.
# key: entry, value: T/C

COMPOUND	T/C
O=C(O)Cc1c[nH]c2c(Cl)ccc(Cl)c12	101 % of control

Observed T/C, P388 leukemia ip, CD2F1 mice, survival T/C, Cc1cc2nc(C(C)(C)F)c(=O)[nH]c2cc1C : 102 % of control

Observed T/C, P388 leukemia ip, CD2F1 mice, survival T/C, CC(C)(C)NC/C(C#N)=C\c1ccccc1 : 97 % of control

Observed T/C, P388 leukemia ip, CD2F1 mice, survival T/C, O=C(Nc1ccc([N+](=O)[O-])cc1C(Sc1ccccc1)c1ccccc1)c1ccc([N+](=O)[O-])cc1 (stereo unspecified) : 94 % of control

Observed T/C, P388 leukemia ip, CD2F1 mice, survival T/C, ClC1=C(Cl)C2(Cl)C3C4CC(C5OC45)C3N1C2(Cl)Cl (stereo unspecified) : 109 % of control

Observed T/C, P388 leukemia ip, CD2F1 mice, survival T/C, CC(C)C[CH2][Ge]([CH2]CC(C)C)([CH2]CC(C)C)[CH2]CC(C)C : 100 % of control
